- System Tested: T1, Avi/His-HuIL18BPa (recombinant human IL-18BP isoform A with Avi and poly-His tags) (human, biotinylated with BirA on the Avi tag in some assays)
- T1 chain: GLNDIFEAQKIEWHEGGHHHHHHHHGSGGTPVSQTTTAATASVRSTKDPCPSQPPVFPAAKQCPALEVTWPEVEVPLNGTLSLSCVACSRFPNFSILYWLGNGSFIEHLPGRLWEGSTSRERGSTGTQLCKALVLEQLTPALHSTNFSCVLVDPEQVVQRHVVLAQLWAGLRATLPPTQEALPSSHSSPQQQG
- Test Description: cell-based or functional assay
Property Label: EC50 of IFNγ release, human PBMC (nM)
Give the quantity in nM, number only.

1. anti-IL18BP antibody BP-09 (antibody, human IgG1, V domains shown) VH: QVQLQQSGAELVRPGASVTLSCKASGYRFTDYAMHWVKQTPVHGLQWIGIIDPETGDTAFNQKFKGKATLTADKSSSTAYMELSSLTSEDSAVYYCTRPRGAMDYWGQGTSVTVSS VL: DIVMTQSHKFMSTSGGDRVSITCKASQDVGTAVAWYQQKPGISPKLLIYWASTRHTGVPDRFTGSGSGTDFTLAISNVQSEDLADYFCQQYSSHPYTFGGGTKLEIK; 1.41

// query Report EC50 of IFNγ release, human PBMC for anti-IL18BP antibody BP-13 (antibody, human IgG1, V domains shown) VH: QVQLQQSGAELVRPGASVTLSCKASGYTFTDYEMHWVKQTPVHGLEWIGPIDPETGDTAYNQKFKGQATLTADKSSSTAYMELSSLTSEDSAVYYCTRGSRGVFDYWGQGTALTVSS VL: DIVMTQSHKFMSTSVGDRVSITCKASQDVGTAVAWYQQKPGQSPKLLIYWASARHTGVPDRFTGSGSGTDFTLTISNVQSEDLADYFCQHYFNFPRTFGGGTKLEIT please.
// result 3.89

// query # get_value(readout='EC50 of IFNγ release, human PBMC', item= anti-IL18BP antibody BP-11 (antibody, human IgG1, V domains shown) VH: QVQLQQSGAELAKPGASVKMSCKASGYTFTNYWMHWVKQRPGQGLEWIGHIDPSTGYTEYNQKFKDKATLTADKSSSTAYMQLSSLTSEDSAVYYCARGLGGLFGYWGQGTLVTVSA VL: DIQMTQSPSSLSASLGGKVTITCKASQDINKFIAWYQHKPGKGPRLLIHHTSTLMPGIPSRFSGSGSGREYSFSISNLEPEDIATYYCLQYDNLLWTFGGGTKLEIR )
// result 4.25
